- Target: α9α10 nAChR (Homo sapiens, UniProt Q9GZZ6+Q9UGM1)
- Construct: with nAChR subunit α10 (CHRNA10)
- Sequence (Q9UGM1 23-479): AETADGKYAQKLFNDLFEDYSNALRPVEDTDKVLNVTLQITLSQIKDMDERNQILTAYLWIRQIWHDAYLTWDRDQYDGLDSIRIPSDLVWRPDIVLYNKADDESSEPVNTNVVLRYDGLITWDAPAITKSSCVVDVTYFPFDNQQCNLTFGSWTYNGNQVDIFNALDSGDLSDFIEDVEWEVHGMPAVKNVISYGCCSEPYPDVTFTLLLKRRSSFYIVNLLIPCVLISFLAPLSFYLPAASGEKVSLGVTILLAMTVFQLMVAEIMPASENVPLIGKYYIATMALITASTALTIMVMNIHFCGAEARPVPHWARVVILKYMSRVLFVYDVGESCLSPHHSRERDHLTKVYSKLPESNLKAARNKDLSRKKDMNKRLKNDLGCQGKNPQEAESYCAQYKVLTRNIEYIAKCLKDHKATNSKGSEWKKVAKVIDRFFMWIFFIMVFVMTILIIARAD
- Sequence (Q9GZZ6 25-450): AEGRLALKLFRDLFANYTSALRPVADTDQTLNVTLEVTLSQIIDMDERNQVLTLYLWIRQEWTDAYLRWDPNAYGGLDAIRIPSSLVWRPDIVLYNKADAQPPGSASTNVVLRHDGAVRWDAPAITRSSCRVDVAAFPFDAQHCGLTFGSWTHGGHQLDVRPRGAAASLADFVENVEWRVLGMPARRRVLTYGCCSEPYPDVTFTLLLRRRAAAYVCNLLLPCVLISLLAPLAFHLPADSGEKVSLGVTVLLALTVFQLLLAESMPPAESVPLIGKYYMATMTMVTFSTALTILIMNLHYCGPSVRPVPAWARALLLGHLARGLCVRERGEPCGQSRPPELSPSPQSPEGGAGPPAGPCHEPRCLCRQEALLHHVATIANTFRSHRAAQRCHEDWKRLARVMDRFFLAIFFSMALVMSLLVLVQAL
- Test Method Notes: two-electrode voltage clamp, Xenopus oocytes, concentration-response (partial agonist)
Value Kind: EC50 (µM)
Give your result in µM as a bare value.

Write down EC50 measured for item CC[N+]1(CC)CCN(c2ccc(C(F)(F)F)cc2)CC1
6.4

====

- Target: α9 nAChR (Homo sapiens, UniProt Q9UGM1)
- Test Method Notes: two-electrode voltage clamp, Xenopus oocytes, concentration-response (partial agonist)
Value Kind: pEC50
Scale: negative log10 of molar concentration, which is what pEC50 denotes.

Write down pEC50 measured for item CC[N+]1(CC)CCN(c2ccc(C(F)(F)F)cc2)CC1 [pCF3-diEPP]
5.15
